Form: system (Plasmodium falciparum), quantity (IC50), values below.
MEASUREMENT_TYPE: IC50 (nM)

- COMPOUND: "CCC1CCC2(CC1)OOC1(CC[C@@]3(C)[C@H](C[C@@H](OC(C)=O)[C@@H]4[C@@H]3C[C@H](OC(C)=O)[C@]3(C)C(C(C)CCC(N)=O)CC[C@@H]43)C1)OO2 (mixture of isomers; 20)"
  MEASUREMENT_TARGET: "Plasmodium falciparum"
  UNITS: "nM"
  OBSERVED_MEASUREMENT: 8.4
- COMPOUND: "CCC1CCC2(CC1)OOC1(CC[C@@]3(C)[C@H](C[C@@H](OC(C)=O)[C@@H]4[C@@H]3C[C@H](OC(C)=O)[C@]3(C)C(C(C)CCC(=O)O)CC[C@@H]43)C1)OO2 (stereo in doubt; 4j)"
  MEASUREMENT_TARGET: "Plasmodium falciparum"
  UNITS: "nM"
  OBSERVED_MEASUREMENT: 9.83
- COMPOUND: "CCCNC(=O)CCC(C)C1CC[C@H]2[C@@H]3[C@H](OC(C)=O)C[C@@H]4CC5(CC[C@]4(C)[C@H]3C[C@H](OC(C)=O)[C@]12C)OOC1(CCC(CC)CC1)OO5 (mixture of isomers; 27)"
  MEASUREMENT_TARGET: "Plasmodium falciparum"
  UNITS: "nM"
  OBSERVED_MEASUREMENT: 90.2
- COMPOUND: "CC(=O)O[C@H]1C[C@H]2[C@@H]([C@H](OC(C)=O)C[C@@H]3CC4(CC[C@@]32C)OOC2(CCC(C)CC2)OO4)[C@@H]2CCC(C(C)CCC(N)=O)[C@@]12C (stereo in doubt; 16)"
  MEASUREMENT_TARGET: "Plasmodium falciparum"
  UNITS: "nM"
  OBSERVED_MEASUREMENT: 20

* * *

Form: system (Plasmodium falciparum), quantity (IC50), values below.

- COMPOUND: "CCC1CCC2(CC1)OOC1(CC[C@@]3(C)[C@H](C[C@@H](OC(C)=O)[C@@H]4[C@@H]3C[C@H](OC(C)=O)[C@]3(C)C(C(C)CCC(=O)OC)CC[C@@H]43)C1)OO2 (single isomer, unassigned; 3j)"
  MEASUREMENT_TARGET: "Plasmodium falciparum"
  UNITS: "nM"
  IC50: 17.7
- COMPOUND: "CCCNC(=O)CCC(C)C1CC[C@H]2[C@@H]3[C@H](OC(C)=O)C[C@@H]4CC5(CC[C@]4(C)[C@H]3C[C@H](OC(C)=O)[C@]12C)OOC1(CCC(C)CC1)OO5 (stereo in doubt; 19)"
  MEASUREMENT_TARGET: "Plasmodium falciparum"
  UNITS: "nM"
  IC50: 84.9
- COMPOUND: "CCC1CCC2(CC1)OOC1(CC[C@@]3(C)[C@H](C[C@@H](OC(C)=O)[C@@H]4[C@@H]3C[C@H](OC(C)=O)[C@]3(C)C(C(C)CCC(=O)NC)CC[C@@H]43)C1)OO2 (mixture of isomers; 21)"
  MEASUREMENT_TARGET: "Plasmodium falciparum"
  UNITS: "nM"
  IC50: 7.21
- COMPOUND: "CC(=O)O[C@H]1C[C@H]2[C@@H]([C@H](OC(C)=O)C[C@@H]3CC4(CC[C@@]32C)OOC2(CCC(C)CC2)OO4)[C@@H]2CCC(C(C)CCC(N)=O)[C@@]12C (stereo in doubt; 12)"
  MEASUREMENT_TARGET: "Plasmodium falciparum"
  UNITS: "nM"
  IC50: 1.17
- COMPOUND: "CCNC(=O)CCC(C)C1CC[C@H]2[C@@H]3[C@H](OC(C)=O)C[C@@H]4CC5(CC[C@]4(C)[C@H]3C[C@H](OC(C)=O)[C@]12C)OOC1(CCC(C)CC1)OO5 (stereo in doubt; 18)"
  MEASUREMENT_TARGET: "Plasmodium falciparum"
  UNITS: "nM"
  IC50: 15.6
- COMPOUND: "COC(=O)CCC(C)C1CC[C@H]2[C@@H]3[C@H](OC(C)=O)C[C@@H]4CC5(CC[C@]4(C)[C@H]3C[C@H](OC(C)=O)[C@]12C)OOC1(CCC(C)CC1)OO5 (stereo in doubt; 3g)"
  MEASUREMENT_TARGET: "Plasmodium falciparum"
  UNITS: "nM"
  IC50: 9.99
- COMPOUND: "COC(=O)CCC(C)C1CC[C@H]2[C@@H]3[C@H](OC(C)=O)C[C@@H]4CC5(CC[C@]4(C)[C@H]3C[C@H](OC(C)=O)[C@]12C)OOC1(CCC(C(C)(C)C)CC1)OO5 (stereo in doubt; 3k)"
  MEASUREMENT_TARGET: "Plasmodium falciparum"
  UNITS: "nM"
  IC50: 107
- COMPOUND: "CCC1CCC2(CC1)OOC1(CC[C@@]3(C)[C@H](C[C@@H](OC(C)=O)[C@@H]4[C@@H]3C[C@H](OC(C)=O)[C@]3(C)C(C(C)CCC(=O)OC)CC[C@@H]43)C1)OO2 (single isomer, unassigned; 3i)"
  MEASUREMENT_TARGET: "Plasmodium falciparum"
  UNITS: "nM"
  IC50: 6.73
- COMPOUND: "CC(=O)O[C@H]1C[C@H]2[C@@H]([C@H](OC(C)=O)C[C@@H]3CC4(CC[C@@]32C)OOC2(CCC(C)CC2)OO4)[C@@H]2CCC(C(C)CCC(=O)O)[C@@]12C (stereo in doubt; 4g)"
  MEASUREMENT_TARGET: "Plasmodium falciparum"
  UNITS: "nM"
  IC50: 1.53

* * *

pIC50: −log10 of the molar value.
Form: system (Plasmodium falciparum), quantity (pIC50), values below.
MEASUREMENT_TYPE: pIC50

- COMPOUND: "CNC(=O)CCC(C)C1CC[C@H]2[C@@H]3[C@H](OC(C)=O)C[C@@H]4CC5(CC[C@]4(C)[C@H]3C[C@H](OC(C)=O)[C@]12C)OOC1(CCC(C)CC1)OO5 (stereo in doubt; 13)"
  MEASUREMENT_TYPE: "pIC50"
  OBSERVED_MEASUREMENT: 8.22
- COMPOUND: "CCNC(=O)CCC(C)C1CC[C@H]2[C@@H]3[C@H](OC(C)=O)C[C@@H]4CC5(CC[C@]4(C)[C@H]3C[C@H](OC(C)=O)[C@]12C)OOC1(CCC(CC)CC1)OO5 (mixture of isomers; 26)"
  MEASUREMENT_TYPE: "pIC50"
  OBSERVED_MEASUREMENT: 7.64
- COMPOUND: "CCNC(=O)CCC(C)C1CC[C@H]2[C@@H]3[C@H](OC(C)=O)C[C@@H]4CC5(CC[C@]4(C)[C@H]3C[C@H](OC(C)=O)[C@]12C)OOC1(CCC(C)CC1)OO5 (stereo in doubt; 14)"
  MEASUREMENT_TYPE: "pIC50"
  OBSERVED_MEASUREMENT: 8.24

* * *

# Test system: Plasmodium falciparum
MEASUREMENT_TYPE: IC50 (nM)

- COMPOUND: "CCNC(=O)CCC(C)C1CC[C@H]2[C@@H]3[C@H](OC(C)=O)C[C@@H]4CC5(CC[C@]4(C)[C@H]3C[C@H](OC(C)=O)[C@]12C)OOC1(CCC(C)CC1)OO5 (stereo in doubt; 14)"
  OBSERVED_MEASUREMENT: 3.93
- COMPOUND: "CC(=O)O[C@H]1C[C@H]2[C@@H]([C@H](OC(C)=O)C[C@@H]3CC4(CC[C@@]32C)OOC2(CCC(C)CC2)OO4)[C@@H]2CCC(C(C)CCC(=O)O)[C@@]12C (stereo in doubt; 4h)"
  OBSERVED_MEASUREMENT: 17.7
